- System: 439559-082-T-J2-PDC spheroid viability
- ASSAY_EXPLANATION: Anticancer human tumor 439559-082-T-J2-PDC patient-derived colon adenocarcinoma cell line growth inhibition [POLQ]
- EXPERIMENTAL_CONDITIONS: curve of first compound; second compound 3.16 µM; spheroids with HUVEC and MSC
Assignment: determine reported pIC50 for the given compounds.
Answers are plain numbers, as −log10 of the molar value.

{"COMPOUND": "Nc1ccn(C2OC(CO)C(O)C2(F)F)c(=O)n1 (stereo not given) + Cc1cccc(N(C)C(=O)C2C(O)CCN2c2nc(C)cc(C(F)(F)F)c2C#N)c1", "pIC50": 6.10}

Below are 2 compounds. Give each one its pIC50.
1. CCc1c2c(nc3ccc(O)cc13)-c1cc3c(c(=O)n1C2)COC(=O)[C@]3(O)CC + Cc1cccc(N(C)C(=O)C2C(O)CCN2c2nc(C)cc(C(F)(F)F)c2C#N)c1
2. CC(=O)O[C@H]1C(=O)[C@@]2(C)[C@H]([C@H](OC(=O)c3ccccc3)[C@]3(O)C[C@H](OC(=O)[C@H](O)[C@@H](NC(=O)c4ccccc4)c4ccccc4)C(C)=C1C3(C)C)[C@]1(OC(C)=O)CO[C@@H]1C[C@@H]2O + Nc1ccc(C#CCN(C(=O)Cc2ncc(C(F)(F)F)cc2C(F)(F)F)c2ccc(F)cc2)nn1

[6.01, 6.29]

Quickly give me recorded pIC50 for CC1COCCN1c1cc(C2(O)CC3CCC(C2)O3)c2cnn(-c3ccn[nH]3)c2n1 (stereo not given) + COC1C(OC(N)=O)C(O)C(Oc2ccc3c(O)c(NC(=O)c4ccc(O)c(CC=C(C)C)c4)c(=O)oc3c2C)OC1(C)C
5.74

---

- Test system: 439559-082-T-J2-PDC spheroid viability
- ASSAY_EXPLANATION: Anticancer human tumor 439559-082-T-J2-PDC cell line growth inhibition [POLQ];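 also: spheroids exposed to compounds for seven days before readout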;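 as to viability, T/C: 100% = DMSO vehicle control viability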
- EXPERIMENTAL_CONDITIONS: second compound 10 µM; first compound 0.1 µM; stronger effect = lower value; spheroids with HUVEC and MSC
Assignment: determine reported viability, T/C for the given compounds.
Numbers only, in %.

A selection of reference data follows.
{"COMPOUND": "C=CC(=O)N1CCN(c2nc(=O)n(-c3c(C)ccnc3C(C)C)c3nc(-c4c(O)cccc4F)c(F)cc23)C(C)C1 (stereo not drawn) + COC1C(OC(N)=O)C(O)C(Oc2ccc3c(O)c(NC(=O)c4ccc(O)c(CC=C(C)C)c4)c(=O)oc3c2C)OC1(C)C", "QUANTITATIVE_RESULT": 92.8}
{"COMPOUND": "O=c1[nH]cc(F)c(=O)[nH]1 + COC1C(OC(N)=O)C(O)C(Oc2ccc3c(O)c(NC(=O)c4ccc(O)c(CC=C(C)C)c4)c(=O)oc3c2C)OC1(C)C", "QUANTITATIVE_RESULT": 88.9}

Now consider a different compound.
Quickly give me recorded viability, T/C for O=C(c1cc(Cc2n[nH]c(=O)c3ccccc23)ccc1F)N1CCN(C(=O)C2CC2)CC1 + Cc1cccc(N(C)C(=O)C2C(O)CCN2c2nc(C)cc(C(F)(F)F)c2C#N)c1
91.4

---

- Test system: 439559-082-T-J2-PDC spheroid viability
- ASSAY_EXPLANATION: Anticancer human tumor 439559-082-T-J2-PDC cell line growth inhibition [POLQ];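 also: spheroids exposed to compounds for seven days before readout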;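 as to viability, T/C: 100% = DMSO vehicle control viability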
- EXPERIMENTAL_CONDITIONS: second compound 10 µM; first compound 0.1 µM; stronger effect = lower value; spheroids with HUVEC and MSC
- Procedure: Multicellular complex tumor spheroid response to Polymerase (POL) inhibitors (novobiocin, ART-558, RP6685) in combination with a variety of drugs and investigational agents in selected tumor cell lines The POL inhibitors (novobiocin, ART-558, and RP6685) were evaluated both individually and in combination with standard of care and investigational anticancer small molecules within a complex spheroid model of solid tumors. . […]
Hi! Just check whether viability, T/C is below 80%. Below gives Criterion met, equal or above gives Criterion not met.

Look over these answered cases.
{"COMPOUND": "CCc1c2c(nc3ccc(O)cc13)-c1cc3c(c(=O)n1C2)COC(=O)[C@]3(O)CC + COC1C(OC(N)=O)C(O)C(Oc2ccc3c(O)c(NC(=O)c4ccc(O)c(CC=C(C)C)c4)c(=O)oc3c2C)OC1(C)C", "CLASS_ASSIGNMENT": "Criterion met"}
{"COMPOUND": "CCc1cc2c(N3CCc4c(cc(Cn5ccnc5)cc4-c4cn(C)nc4C(F)(F)F)C3=O)ccnc2c(OC)n1 + Cc1cccc(N(C)C(=O)C2C(O)CCN2c2nc(C)cc(C(F)(F)F)c2C#N)c1", "CLASS_ASSIGNMENT": "Criterion not met"}
{"COMPOUND": "COc1cc2cc(C(=O)CCC(=O)O)sc2cc1OC + COC1C(OC(N)=O)C(O)C(Oc2ccc3c(O)c(NC(=O)c4ccc(O)c(CC=C(C)C)c4)c(=O)oc3c2C)OC1(C)C", "CLASS_ASSIGNMENT": "Criterion not met"}

We next turn to a different compound, shown below.
Below 80% on viability, T/C? Entry CC1COCCN1c1cc(C2(O)CC3CCC(C2)O3)c2cnn(-c3ccn[nH]3)c2n1 (stereo not given) + COC1C(OC(N)=O)C(O)C(Oc2ccc3c(O)c(NC(=O)c4ccc(O)c(CC=C(C)C)c4)c(=O)oc3c2C)OC1(C)C
Criterion not met
